# subjectOfTest: MC2R (Homo sapiens, UniProt Q01718)
# Construct: purchased Promega (in-house HiBiT-GPCR construct library, NanoBRET)
# Sequence (Q01718 whole entry): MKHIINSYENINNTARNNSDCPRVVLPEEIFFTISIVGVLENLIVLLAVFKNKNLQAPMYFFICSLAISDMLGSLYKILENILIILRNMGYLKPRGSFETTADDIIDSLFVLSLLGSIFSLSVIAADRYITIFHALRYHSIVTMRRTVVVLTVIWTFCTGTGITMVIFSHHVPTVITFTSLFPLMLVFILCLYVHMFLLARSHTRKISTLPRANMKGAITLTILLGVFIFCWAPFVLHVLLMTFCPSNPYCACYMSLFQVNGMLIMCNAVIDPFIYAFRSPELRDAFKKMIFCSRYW
# experimentNotes: NanoBRET screen HiBiT-MC2R in HEK293
# Type: binding
# conditionDescription: MC2R; tracer 0.1μM
Attribute: NanoBRET Fold Response

Check out these entries, answers already filled in.
smilesnotation=CCCn1c(=O)c2[nH]c(-c3ccc(OCC(=O)NCCNC(=O)CCOCCNC(=O)c4ccc(CNC(=O)CCc5ccc6n5[B-](F)(F)[N+]5=C(c7ccc[nH]7)C=CC5=C6)cc4)cc3)nc2n(CCC)c1=O result=1.02
smilesnotation=O=C(CCOCCOCCOCCOCCNC(=O)CCc1ccc2n1[B-](F)(F)[N+]1=C(c3ccc[nH]3)C=CC1=C2)NCCCN1CCN(C2=Nc3ccccc3Oc3ccc(Cl)cc32)CC1 result=0.99
smilesnotation=O=C(CCc1ccc2n1[B-](F)(F)[N+]1=C(c3ccc[nH]3)C=CC1=C2)NCCOCCOCCNC(=O)OCCOCCN1CCN(C2=Nc3ccccc3Sc3ccccc32)CC1 result=0.98
smilesnotation=Cc1cc2c(s1)Nc1ccccc1N=C2N1CCN(CCCNC(=O)CCOCCOCCOCCOCCNC(=O)CCc2ccc3n2[B-](F)(F)[N+]2=C(c4ccc[nH]4)C=CC2=C3)CC1 result=0.98

Short answer for COc1ccccc1N1CCN(CCCCN2C(=O)c3ccc(CNC(=O)CCOCCNC(=O)c4ccc(CNC(=O)CCc5ccc6n5[B-](F)(F)[N+]5=C(c7ccc[nH]7)C=CC5=C6)cc4)cc3C2=O)CC1 : NanoBRET Fold Response was 1.02

###

Attribute: NanoBRET Fold Response
# subjectOfTest: MCHR2 (Homo sapiens, UniProt Q969V1)
# Construct: purchased Promega (in-house HiBiT-GPCR construct library, NanoBRET)
# Sequence (Q969V1 whole entry): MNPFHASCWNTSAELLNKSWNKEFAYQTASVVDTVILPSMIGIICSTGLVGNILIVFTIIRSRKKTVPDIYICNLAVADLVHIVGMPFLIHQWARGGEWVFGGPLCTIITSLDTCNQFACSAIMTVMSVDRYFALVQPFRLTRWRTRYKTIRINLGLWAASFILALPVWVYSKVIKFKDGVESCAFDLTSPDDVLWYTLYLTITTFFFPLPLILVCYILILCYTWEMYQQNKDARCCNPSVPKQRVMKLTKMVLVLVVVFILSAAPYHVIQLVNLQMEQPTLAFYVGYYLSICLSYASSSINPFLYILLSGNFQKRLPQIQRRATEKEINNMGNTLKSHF
# experimentNotes: NanoBRET screen HiBiT-MCHR2 in HEK293
# Assay type: binding
# conditionDescription: MCHR2; tracer 1μM

Check out these entries, answers already filled in.
compound=Cc1cc2c(s1)Nc1ccccc1N=C2N1CCN(CCCNC(=O)CCOCCOCCOCCOCCNC(=O)CCc2ccc3n2[B-](F)(F)[N+]2=C(c4ccc[nH]4)C=CC2=C3)CC1 outcomemeasure="NanoBRET Fold Response" result=1.01
compound="O=C(CCc1ccc2n1[B-](F)(F)[N+]1=C(c3ccc[nH]3)C=CC1=C2)NCc1ccc(C(=O)NCCOCCC(=O)N[C@@H]2CC[C@@]3(O)[C@H]4Cc5ccc(O)c6c5[C@@]3(CCN4CC3CC3)[C@H]2O6)cc1 [Naltrexone-3-NB590]" outcomemeasure="NanoBRET Fold Response" result=1.01

Here is the next item to consider.
Short answer for CC(C)N(CC[C@H](c1ccccc1)c1cc(CCNC(=O)c2ccc(CNC(=O)CCc3ccc4n3[B-](F)(F)[N+]3=C(c5ccc[nH]5)C=CC3=C4)cc2)ccc1O)C(C)C : NanoBRET Fold Response was 1.02

###

# subjectOfTest: OXTR (Homo sapiens)
# Construct: purchased Promega (in-house HiBiT-GPCR construct library, NanoBRET)
# Sequence (P30559 whole entry): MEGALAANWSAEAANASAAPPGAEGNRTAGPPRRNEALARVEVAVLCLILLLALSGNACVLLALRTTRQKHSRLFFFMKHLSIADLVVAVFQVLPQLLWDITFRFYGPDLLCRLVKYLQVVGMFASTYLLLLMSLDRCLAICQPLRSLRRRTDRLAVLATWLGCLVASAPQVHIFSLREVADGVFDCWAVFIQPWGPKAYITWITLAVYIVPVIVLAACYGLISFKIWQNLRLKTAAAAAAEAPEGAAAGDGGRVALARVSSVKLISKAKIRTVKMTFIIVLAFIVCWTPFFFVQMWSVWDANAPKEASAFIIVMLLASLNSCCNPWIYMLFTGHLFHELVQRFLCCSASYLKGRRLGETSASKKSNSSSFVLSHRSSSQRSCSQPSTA
# experimentNotes: NanoBRET screen HiBiT-OXTR in HEK293
# Assay type: binding
# conditionDescription: OXTR; tracer 0.1μM
Short version: NanoBRET Fold Response at least 1 is rule met, less is rule not met.

molecule=COc1ccccc1N1CCN(CCCCN2C(=O)c3ccc(CNC(=O)CCOCCNC(=O)c4ccc(CNC(=O)CCc5ccc6n5[B-](F)(F)[N+]5=C(c7ccc[nH]7)C=CC5=C6)cc4)cc3C2=O)CC1 subjectoftest="OXTR (Homo sapiens)" qualitativelabel="rule met"
molecule=CCCn1c(=O)c2[nH]c(-c3ccc(OCC(=O)NCCNC(=O)CCOCCNC(=O)c4ccc(CNC(=O)CCc5ccc6n5[B-](F)(F)[N+]5=C(c7ccc[nH]7)C=CC5=C6)cc4)cc3)nc2n(CCC)c1=O subjectoftest="OXTR (Homo sapiens)" qualitativelabel="rule met"
molecule=CC(C)N(CC[C@H](c1ccccc1)c1cc(CCNC(=O)CCOCCOCCOCCOCCNC(=O)CCc2ccc3n2[B-](F)(F)[N+]2=C(c4ccc[nH]4)C=CC2=C3)ccc1O)C(C)C subjectoftest="OXTR (Homo sapiens)" qualitativelabel="rule not met"

Next molecule, please.
-- ask Say whether Cc1nc2n(c(=O)c1CCN1CCC(c3noc4cc(F)ccc34)CC1)CCCC2OC(=O)NCCOCCOCCOCCOCCNC(=O)CCc1ccc2n1[B-](F)(F)[N+]1=C(c3ccc[nH]3)C=CC1=C2 (stereo not drawn) shows NanoBRET Fold Response of 1 or more.
-- reply rule not met

###

Attribute: NanoBRET Fold Response
# subjectOfTest: CCR1 (Homo sapiens)
# Construct: purchased Promega (in-house HiBiT-GPCR construct library, NanoBRET)
# Sequence (P32246 whole entry): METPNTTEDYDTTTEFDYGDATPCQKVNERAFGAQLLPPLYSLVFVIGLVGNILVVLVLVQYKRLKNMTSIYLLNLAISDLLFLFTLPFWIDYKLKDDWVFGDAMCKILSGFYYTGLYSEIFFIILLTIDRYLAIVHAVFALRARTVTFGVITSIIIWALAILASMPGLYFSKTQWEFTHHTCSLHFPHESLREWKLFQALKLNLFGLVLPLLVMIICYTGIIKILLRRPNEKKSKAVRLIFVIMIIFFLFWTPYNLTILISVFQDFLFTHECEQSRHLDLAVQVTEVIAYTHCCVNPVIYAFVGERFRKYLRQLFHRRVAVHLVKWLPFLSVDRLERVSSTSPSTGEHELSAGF
# experimentNotes: NanoBRET screen HiBiT-CCR1 in HEK293
# Format: binding
# conditionDescription: CCR1; tracer 1μM
// return just the number, without any unit appended

Check out these entries, answers already filled in.
compound="Cc1nc2n(c(=O)c1CCN1CCC(c3noc4cc(F)ccc34)CC1)CCCC2OC(=O)NCCOCCOCCOCCOCCNC(=O)CCc1ccc2n1[B-](F)(F)[N+]1=C(c3ccc[nH]3)C=CC1=C2 (stereo not shown)" outcomemeasure="NanoBRET Fold Response" recordednumber=0.99
compound=O=C(CCc1ccc2n1[B-](F)(F)[N+]1=C(c3ccc[nH]3)C=CC1=C2)NCCOCCOCCNC(=O)OCCOCCN1CCN(C2=Nc3ccccc3Sc3ccccc32)CC1 outcomemeasure="NanoBRET Fold Response" recordednumber=0.99
compound=O=C(CCOCCOCCOCCOCCNC(=O)CCc1ccc2n1[B-](F)(F)[N+]1=C(c3ccc[nH]3)C=CC1=C2)NCCCN1CCN(C2=Nc3ccccc3Oc3ccc(Cl)cc32)CC1 outcomemeasure="NanoBRET Fold Response" recordednumber=0.99

Here is the next item to consider.
Short answer for Cc1cc2c(s1)Nc1ccccc1N=C2N1CCN(CCCNC(=O)CCOCCOCCOCCOCCNC(=O)CCc2ccc3n2[B-](F)(F)[N+]2=C(c4ccc[nH]4)C=CC2=C3)CC1 : NanoBRET Fold Response was 0.98

###

Attribute: NanoBRET Fold Response
# subjectOfTest: CCKBR (Homo sapiens, UniProt P32239)
# Construct: purchased Promega (in-house HiBiT-GPCR construct library, NanoBRET)
# Sequence (P32239 whole entry): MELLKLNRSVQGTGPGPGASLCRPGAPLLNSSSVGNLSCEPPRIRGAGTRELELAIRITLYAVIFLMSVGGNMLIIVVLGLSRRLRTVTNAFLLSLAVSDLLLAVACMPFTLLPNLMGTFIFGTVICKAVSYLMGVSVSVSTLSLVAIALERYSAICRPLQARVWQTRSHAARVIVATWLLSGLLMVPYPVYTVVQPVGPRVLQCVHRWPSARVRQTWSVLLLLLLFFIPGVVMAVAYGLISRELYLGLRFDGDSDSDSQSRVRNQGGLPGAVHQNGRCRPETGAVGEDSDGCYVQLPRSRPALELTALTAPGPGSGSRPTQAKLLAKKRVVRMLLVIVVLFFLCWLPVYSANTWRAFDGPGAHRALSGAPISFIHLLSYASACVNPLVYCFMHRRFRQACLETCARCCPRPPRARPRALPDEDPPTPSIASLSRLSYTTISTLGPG
# experimentNotes: NanoBRET screen HiBiT-CCKBR in HEK293
# Format: binding
# conditionDescription: CCKBR; tracer 0.1μM
// return just the number, without any unit appended

Check out these entries, answers already filled in.
compound="Cc1nc2n(c(=O)c1CCN1CCC(c3noc4cc(F)ccc34)CC1)CCCC2OC(=O)NCCOCCOCCOCCOCCNC(=O)CCc1ccc2n1[B-](F)(F)[N+]1=C(c3ccc[nH]3)C=CC1=C2 (stereo not shown) [Risperidone-2-NB590]" recordednumber=1.01
compound="COc1ccccc1N1CCN(CCCCN2C(=O)c3ccc(CNC(=O)CCOCCNC(=O)c4ccc(CNC(=O)CCc5ccc6n5[B-](F)(F)[N+]5=C(c7ccc[nH]7)C=CC5=C6)cc4)cc3C2=O)CC1 [NAN-190-3-NB590]" recordednumber=0.98
compound="COc1ccccc1N1CCN(CCCCN2C(=O)c3ccc(CNC(=O)CCOCCOCCOCCOCCNC(=O)CCc4ccc5n4[B-](F)(F)[N+]4=C(c6ccc[nH]6)C=CC4=C5)cc3C2=O)CC1 [NAN-190-2-NB590]" recordednumber=1.00

Here is the next item to consider.
Short answer for CCCn1c(=O)c2[nH]c(-c3ccc(OCC(=O)NCCNC(=O)CCOCCNC(=O)c4ccc(CNC(=O)CCc5ccc6n5[B-](F)(F)[N+]5=C(c7ccc[nH]7)C=CC5=C6)cc4)cc3)nc2n(CCC)c1=O [XAC-3-NB590] : NanoBRET Fold Response was 1.02

###

# subjectOfTest: BRS3 (Homo sapiens)
# Construct: purchased Promega (in-house HiBiT-GPCR construct library, NanoBRET)
# Sequence (P32247 whole entry): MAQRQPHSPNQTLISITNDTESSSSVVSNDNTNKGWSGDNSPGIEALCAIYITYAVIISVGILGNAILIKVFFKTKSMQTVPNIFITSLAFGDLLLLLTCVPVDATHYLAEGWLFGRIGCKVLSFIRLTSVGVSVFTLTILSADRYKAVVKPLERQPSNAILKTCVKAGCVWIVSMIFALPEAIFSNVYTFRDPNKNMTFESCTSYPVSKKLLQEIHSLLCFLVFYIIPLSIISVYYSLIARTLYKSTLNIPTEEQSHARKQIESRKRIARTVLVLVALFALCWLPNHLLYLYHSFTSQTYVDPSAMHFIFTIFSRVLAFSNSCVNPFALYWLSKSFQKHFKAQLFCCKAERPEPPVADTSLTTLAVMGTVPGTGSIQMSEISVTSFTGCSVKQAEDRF
# experimentNotes: NanoBRET screen HiBiT-BRS3 in HEK293
# Type: binding
# conditionDescription: BRS3; tracer 0.1μM
outcomeMeasure: NanoBRET Fold Response
// return just the number, without any unit appended

Check out these entries, answers already filled in.
molecule=CCCn1c(=O)c2[nH]c(-c3ccc(OCC(=O)NCCNC(=O)CCOCCNC(=O)c4ccc(CNC(=O)CCc5ccc6n5[B-](F)(F)[N+]5=C(c7ccc[nH]7)C=CC5=C6)cc4)cc3)nc2n(CCC)c1=O outcomemeasure="NanoBRET Fold Response" recordednumber=0.95
molecule=COc1ccccc1N1CCN(CCCCN2C(=O)c3ccc(CNC(=O)CCOCCOCCOCCOCCNC(=O)CCc4ccc5n4[B-](F)(F)[N+]4=C(c6ccc[nH]6)C=CC4=C5)cc3C2=O)CC1 outcomemeasure="NanoBRET Fold Response" recordednumber=1.04
molecule=CC(C)N(CC[C@H](c1ccccc1)c1cc(CCNC(=O)CCOCCOCCOCCOCCNC(=O)CCc2ccc3n2[B-](F)(F)[N+]2=C(c4ccc[nH]4)C=CC2=C3)ccc1O)C(C)C outcomemeasure="NanoBRET Fold Response" recordednumber=1.02
molecule=O=C(CCc1ccc2n1[B-](F)(F)[N+]1=C(c3ccc[nH]3)C=CC1=C2)NCCOCCOCCNC(=O)OCCOCCN1CCN(C2=Nc3ccccc3Sc3ccccc32)CC1 outcomemeasure="NanoBRET Fold Response" recordednumber=0.96
molecule=Cc1cc2c(s1)Nc1ccccc1N=C2N1CCN(CCCNC(=O)CCOCCOCCOCCOCCNC(=O)CCc2ccc3n2[B-](F)(F)[N+]2=C(c4ccc[nH]4)C=CC2=C3)CC1 outcomemeasure="NanoBRET Fold Response" recordednumber=1.01

Short answer for O=C(CCOCCOCCOCCOCCNC(=O)CCc1ccc2n1[B-](F)(F)[N+]1=C(c3ccc[nH]3)C=CC1=C2)NCCCN1CCN(C2=Nc3ccccc3Oc3ccc(Cl)cc32)CC1 : NanoBRET Fold Response was 0.99

Short answer for O=C(CCc1ccc2n1[B-](F)(F)[N+]1=C(c3ccc[nH]3)C=CC1=C2)NCc1ccc(C(=O)NCCOCCC(=O)N[C@@H]2CC[C@@]3(O)[C@H]4Cc5ccc(O)c6c5[C@@]3(CCN4CC3CC3)[C@H]2O6)cc1 [Naltrexone-3-NB590] : NanoBRET Fold Response was 1.05

Reference source for all entries: paper PMC8151276
